B1: Retinoic acid receptor beta, residues 85 to 161; numbered along this chain, P10826 (parent)
chain: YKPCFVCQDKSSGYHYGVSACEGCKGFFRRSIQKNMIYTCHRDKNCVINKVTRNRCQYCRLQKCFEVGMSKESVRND

- Variants of: B1
- Protocol: abundance fitness (aPCA) (normalised: wild type 0, dead -1); higher = more abundant; growth selection in yeast, the domain comes from the species named
- Experimental Parameters: Homo sapiens
Everything with abundance fitness lower than -0.1 is criterion not met; everything else, including exactly -0.1, is criterion met.

Q: Tell me whether abundance fitness is at least -0.1 here: R29E
A: criterion met

Q: API: above_or_equal(metric=abundance fitness, cutoff=-0.1) for item R60L
A: criterion met

Q: Reported abundance fitness at or above -0.1? S12W
A: criterion not met

Q: Kindly determine if abundance fitness recorded for F28P is above or exactly -0.1.
A: criterion not met

Q: hey, is abundance fitness for this one >= -0.1? H15L
A: criterion met

Q: I'd appreciate it if you could say whether Y38Q has abundance fitness at least equal to -0.1.
A: criterion not met

Q: Does abundance fitness meet or surpass -0.1 for H15M ?
A: criterion met

Q: abundance fitness >= -0.1 for N35F ?
A: criterion not met

Q: Test whether the variant F28N records abundance fitness of -0.1 or higher.
A: criterion not met

Q: Record R60T ; criterion: abundance fitness no lower than -0.1. Met?
A: criterion met

Q: Check this variant for abundance fitness at or above -0.1: T39Y
A: criterion met

Q: Please check the record A20R and state if its abundance fitness is at or above -0.1.
A: criterion not met

Q: Hi, just wondering whether S31C shows abundance fitness of -0.1 or higher.
A: criterion not met

Q: Hi, just wondering whether Y14A shows abundance fitness of -0.1 or higher.
A: criterion met

Q: Reported abundance fitness at or above -0.1? Y14E
A: criterion met

Q: Decide: is the reported value of abundance fitness for G13M equal to or greater than -0.1?
A: criterion met

Q: Would you say K10R shows abundance fitness at minimum -0.1?
A: criterion met

Q: Decide: is the reported value of abundance fitness for G26E equal to or greater than -0.1?
A: criterion met

Q: Is abundance fitness for P3Y at or above -0.1?
A: criterion met

Q: Record D43K ; criterion: abundance fitness no lower than -0.1. Met?
A: criterion met

Q: Determine whether measured abundance fitness meets or exceeds -0.1 for S12P
A: criterion not met

Q: Does the variant E22D have recorded abundance fitness that is -0.1 or more?
A: criterion met

Q: Determine whether measured abundance fitness meets or exceeds -0.1 for R60K
A: criterion met

Q: I'd appreciate it if you could say whether N49Q has abundance fitness at least equal to -0.1.
A: criterion not met

Q: Decide: is the reported value of abundance fitness for S19M equal to or greater than -0.1?
A: criterion met

Q: Check the entry R53G : does abundance fitness equal or exceed -0.1?
A: criterion met

Q: Test whether the variant K10W records abundance fitness of -0.1 or higher.
A: criterion met

Q: Decide: abundance fitness of E22M >= -0.1?
A: criterion not met

Q: Textbook exercise: given the entry N45G , state whether its abundance fitness is greater than or equal to -0.1.
A: criterion met

Q: Does the variant K50Y have recorded abundance fitness that is -0.1 or more?
A: criterion met

Q: Does G23K have a reported abundance fitness of at least -0.1?
A: criterion not met

Q: Does C46R have a reported abundance fitness of at least -0.1?
A: criterion not met

Q: Assess whether reported abundance fitness for V6T sits at -0.1 or higher.
A: criterion not met

Q: Please indicate if the recorded abundance fitness for K25F meets or exceeds -0.1.
A: criterion met

Q: API: above_or_equal(metric=abundance fitness, cutoff=-0.1) for item C40I
A: criterion not met

Q: Item F5C with abundance fitness of -0.1 or above?
A: criterion not met

Q: Given the entry R42D , answer whether its abundance fitness meets or surpasses -0.1.
A: criterion met

Q: Textbook exercise: given the entry K25Q , state whether its abundance fitness is greater than or equal to -0.1.
A: criterion met

Q: Is the recorded value of abundance fitness equal to or greater than -0.1 for this variant? C40S
A: criterion not met

Q: Please indicate if the recorded abundance fitness for K44W meets or exceeds -0.1.
A: criterion not met

Q: hey, is abundance fitness for this one >= -0.1? T52L
A: criterion met

Q: Please tell me: is the variant S19C at or over -0.1 in terms of abundance fitness?
A: criterion met

Q: Could you please find out whether K2I has abundance fitness that meets -0.1 or exceeds it?
A: criterion not met

Q: Reported abundance fitness reaches at least -0.1 for M36N ?
A: criterion met

Q: // inclusive: abundance fitness at least -0.1? input: N54R
A: criterion met

Q: State whether the measured abundance fitness reaches -0.1, counting equality as reaching it, for Y16G
A: criterion met
